# target system: Somatostatin receptor type 2 (Homo sapiens, UniProt P30874)
# Sequence (P30874 whole entry): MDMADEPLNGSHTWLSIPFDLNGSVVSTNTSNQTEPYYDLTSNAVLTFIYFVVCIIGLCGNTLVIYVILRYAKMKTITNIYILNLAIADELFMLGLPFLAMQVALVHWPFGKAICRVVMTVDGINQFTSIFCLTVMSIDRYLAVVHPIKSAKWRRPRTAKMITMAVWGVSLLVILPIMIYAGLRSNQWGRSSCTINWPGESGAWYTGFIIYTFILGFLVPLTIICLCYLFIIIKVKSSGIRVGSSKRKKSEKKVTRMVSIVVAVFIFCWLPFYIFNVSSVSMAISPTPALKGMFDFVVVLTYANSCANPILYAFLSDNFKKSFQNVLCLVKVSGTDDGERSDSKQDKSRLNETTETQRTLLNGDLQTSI
# assay remarks: Inhibition of human somatostatin receptor type 2
pIC50: −log10 of the molar value. Where a SMILES comes first, the peptide text is derived from it.
quantity: pIC50

Inquiry: Name the recorded pIC50 of the molecule listed here: CC(=O)N[C@@H](Cc1ccccc1)C(=O)N[C@@H](Cc1c[nH]c2ccccc12)C(=O)N[C@@H](CCCCN)C(=O)N[C@H](C(N)=O)[C@@H](C)O (Ac-FWKT-NH2)
Reply text: < 6.00

###

# target system: Somatostatin receptor type 5 (Homo sapiens, UniProt P35346)
# Sequence (P35346 whole entry): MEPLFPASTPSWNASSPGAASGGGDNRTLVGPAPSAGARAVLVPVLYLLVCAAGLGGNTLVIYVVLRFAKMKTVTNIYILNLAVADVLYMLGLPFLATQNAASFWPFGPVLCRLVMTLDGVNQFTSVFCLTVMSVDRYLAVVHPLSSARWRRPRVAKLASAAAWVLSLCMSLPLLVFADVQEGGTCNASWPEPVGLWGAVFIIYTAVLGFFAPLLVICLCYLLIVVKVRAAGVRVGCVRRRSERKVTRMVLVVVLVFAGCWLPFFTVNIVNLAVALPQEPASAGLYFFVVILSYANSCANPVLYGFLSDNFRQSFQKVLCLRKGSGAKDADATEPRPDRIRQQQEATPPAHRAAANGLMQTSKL
pIC50: −log10 of the molar value. Where a SMILES comes first, the peptide text is derived from it.
Catalogue of compounds with associated pIC50

- compound: "CC(=O)N[C@@H](Cc1ccccc1)C(=O)N[C@]1(C)Cc2c([nH]c3ccccc23)CN([C@@H](CCCCN)C(=O)N[C@H](C(N)=O)[C@@H](C)O)C1=O"
  pIC50: "< 6.00"

Please examine the following record next.
Inquiry: Look up and report measured pIC50 (Somatostatin receptor type 5 (Homo sapiens, UniProt P35346)) for the following compound: CC(=O)N[C@@H](Cc1ccccc1)C(=O)N[C@@H](Cc1c[nH]c2ccccc12)C(=O)N[C@@H](CCCCN)C(=O)N[C@H](C(N)=O)[C@@H](C)O (Ac-FWKT-NH2)
Reply text: < 6.00

###

# target system: Mu-type opioid receptor (Homo sapiens)
# Sequence (P35372 whole entry): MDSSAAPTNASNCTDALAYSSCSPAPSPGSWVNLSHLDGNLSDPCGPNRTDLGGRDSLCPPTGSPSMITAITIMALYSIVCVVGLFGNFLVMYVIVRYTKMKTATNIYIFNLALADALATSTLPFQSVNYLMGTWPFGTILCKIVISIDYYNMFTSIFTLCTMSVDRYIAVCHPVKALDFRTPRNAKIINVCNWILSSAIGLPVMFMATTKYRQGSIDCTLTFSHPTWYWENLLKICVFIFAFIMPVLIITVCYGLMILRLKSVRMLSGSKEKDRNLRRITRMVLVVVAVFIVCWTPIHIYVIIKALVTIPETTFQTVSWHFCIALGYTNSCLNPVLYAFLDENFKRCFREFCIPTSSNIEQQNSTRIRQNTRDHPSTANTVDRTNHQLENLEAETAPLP
Where a SMILES comes first, the peptide text is derived from it. [ ]: non-standard residue; d: D form.
quantity: pIC50
Lab note — pIC50 values are minus log10 of concentrations in M.

Inquiry: Look up and report measured pIC50 (Mu-type opioid receptor (Homo sapiens)) for the following compound: C[C@@H](NC(=O)[C@@H](N)Cc1ccc(O)cc1)C(=O)N[C@@H](Cc1ccccc1)C(=O)NCC(N)=O (H-Y[dA]FG-NH2)
Reply text: 7.44

###

Catalogue of compounds with associated IC50
# target system: Substance-P receptor (Rattus norvegicus)
# assay remarks: Inhibition of [125I]BHSP binding to neurokinin receptor 1 in rat brain synaptosomes
# Format: subcellular, Synaptosome
*1 amine or outer side, *2 acyl side, *3 side chain or, on linkers, in order; H or OH if unused. Where a SMILES comes first, the peptide text is derived from it. [ ]: non-standard residue; d: D form. Gly(9-fluorenyl) = N[C@H](C(=O)O)C1c2ccccc2-c2ccccc21; X1 = O=C([C@@H](N[*:1])[C@H]1CCc2ccccc21)[*:2]; Tic = O=C(O)[C@@H]1Cc2ccccc2CN1
Numeric answer only, unit nM assumed.

Please review the entries below; each comes with its answer.
- compound: "CC[C@H](C)[C@H](NC(=O)CNC(=O)[C@H](Cc1ccccc1)NC(=O)[C@@H](NC(=O)[C@H](CCC(N)=O)NC(=O)[C@H](CCC(=O)O)NC(=O)[C@H](CCCCN)NC(=O)[C@@H]1CCCN1C(=O)[C@@H](N)CCCNC(=N)N)[C@H]1CCc2ccccc21)C(=O)N[C@@H](CCSC)C(=O)O (H-RPKEQ[X1]FGIM-OH)"
  target system: "Substance-P receptor (Rattus norvegicus)"
  value unit: "nM"
  IC50: 3
- compound: "CC[C@H](C)[C@H](NC(=O)CNC(=O)[C@H](Cc1ccccc1)NC(=O)[C@@H]1Cc2ccccc2CN1C(=O)[C@H](CCC(N)=O)NC(=O)[C@H](CCC(=O)O)NC(=O)[C@H](CCCCN)NC(=O)[C@@H]1CCCN1C(=O)[C@@H](N)CCCNC(=N)N)C(=O)N[C@@H](CCSC)C(=O)O (H-RPKEQ[Tic]FGIM-OH)"
  target system: "Substance-P receptor (Rattus norvegicus)"
  value unit: "nM"
  IC50: 2400
- compound: "CC[C@H](C)[C@H](NC(=O)CNC(=O)[C@@H](NC(=O)[C@H](Cc1ccccc1)NC(=O)[C@H](CCC(N)=O)NC(=O)[C@H](CCC(=O)O)NC(=O)[C@H](CCCCN)NC(=O)[C@@H]1CCCN1C(=O)[C@@H](N)CCCNC(=N)N)C1c2ccccc2-c2ccccc21)C(=O)N[C@@H](CCSC)C(=O)O (H-RPKEQF[Gly(9-fluorenyl)]GIM-OH)"
  target system: "Substance-P receptor (Rattus norvegicus)"
  value unit: "nM"
  IC50: 3

Please examine the following record next.
Inquiry: Name the recorded IC50 of the compound listed here: CC[C@H](C)[C@H](NC(=O)CNC(=O)[C@@H]1Cc2ccccc2CN1C(=O)[C@H](Cc1ccccc1)NC(=O)[C@H](CCC(N)=O)NC(=O)[C@H](CCC(=O)O)NC(=O)[C@H](CCCCN)NC(=O)[C@@H]1CCCN1C(=O)[C@@H](N)CCCNC(=N)N)C(=O)N[C@@H](CCSC)C(=O)O (H-RPKEQF[Tic]GIM-OH)
Reply text: 1200

###

# target system: Substance-P receptor (Rattus norvegicus, UniProt P14600)
# Sequence (P14600 whole entry): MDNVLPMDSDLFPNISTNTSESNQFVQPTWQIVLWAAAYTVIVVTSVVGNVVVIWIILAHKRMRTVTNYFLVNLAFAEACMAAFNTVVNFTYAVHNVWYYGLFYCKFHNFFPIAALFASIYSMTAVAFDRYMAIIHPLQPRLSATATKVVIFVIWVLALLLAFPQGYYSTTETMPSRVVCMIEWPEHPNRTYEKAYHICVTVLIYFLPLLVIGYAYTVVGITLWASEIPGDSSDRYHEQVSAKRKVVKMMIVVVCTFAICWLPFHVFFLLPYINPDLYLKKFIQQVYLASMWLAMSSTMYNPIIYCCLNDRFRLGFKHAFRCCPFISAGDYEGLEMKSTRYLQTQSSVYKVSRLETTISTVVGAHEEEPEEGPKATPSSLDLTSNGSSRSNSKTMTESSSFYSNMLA
# assay remarks: Inhibition of [125I]BHSP binding to neurokinin receptor 1 in rat brain synaptosomes
# Type: subcellular, Synaptosome
quantity: pIC50
Lab note — pIC50 values are minus log10 of concentrations in M.

Inquiry: Name the recorded pIC50 of the substance listed here: "H-RPKEQFFGIM-OH"
Reply text: 9.19

###

Catalogue of compounds with associated pIC50
# assay remarks: Inhibition of farnesyltransferase (unknown origin)
# Set-up: species or system Homo sapiens
Where a SMILES comes first, the peptide text is derived from it. [ ]: non-standard residue; d: D form. Tic = O=C(O)[C@@H]1Cc2ccccc2CN1
Lab note — pIC50 values are minus log10 of concentrations in M.

Please review the entries below; each comes with its answer.
- compound: "CSCC[C@H](NC(=O)[C@H]1Cc2ccccc2CN1C(=O)[C@@H](NC(=O)[C@H](CS)NC(=O)[C@@H](N)CCCCN)C(C)C)C(=O)O"
  pIC50: 4.00
- compound: "CSCC[C@H](NC(=O)[C@H]1Cc2ccccc2CN1C(=O)[C@H](C(C)C)N(C)C(=O)[C@H](CS)NC(=O)[C@@H](N)CCCCN)C(=O)O"
  pIC50: 8.30
- compound: "CSCC[C@H](NC(=O)[C@H](Cc1ccccc1)NC(=O)[C@@H](NC(=O)[C@H](CS)NC(C)=O)C(C)C)C(=O)O (Ac-CVFM-OH)"
  pIC50: 6.60
- compound: "CSCC[C@H](NC(=O)[C@@H]1Cc2ccccc2CN1C(=O)[C@@H](NC(=O)[C@H](CS)NC(C)=O)C(C)C)C(=O)O (Ac-CV[Tic]M-OH)"
  pIC50: 7.96
- compound: "CSCC[C@H](NC(=O)[C@@H]1Cc2ccccc2CN1C(=O)[C@@H](NC(=O)[C@H](CS)NC(=O)[C@@H](N)CCCCN)C(C)C)C(=O)O"
  pIC50: 7.70

Please examine the following record next.
Inquiry: Name the recorded pIC50 of the compound listed here: CSCC[C@H](NC(=O)[C@@H]1Cc2ccccc2CN1C(=O)[C@@H](NC(=O)[C@@H](N)CS)C(C)C)C(=O)O (H-CV[Tic]M-OH)
Reply text: 9.00

###

# target system: B2 bradykinin receptor (Homo sapiens, UniProt P30411)
# Sequence (P30411 whole entry): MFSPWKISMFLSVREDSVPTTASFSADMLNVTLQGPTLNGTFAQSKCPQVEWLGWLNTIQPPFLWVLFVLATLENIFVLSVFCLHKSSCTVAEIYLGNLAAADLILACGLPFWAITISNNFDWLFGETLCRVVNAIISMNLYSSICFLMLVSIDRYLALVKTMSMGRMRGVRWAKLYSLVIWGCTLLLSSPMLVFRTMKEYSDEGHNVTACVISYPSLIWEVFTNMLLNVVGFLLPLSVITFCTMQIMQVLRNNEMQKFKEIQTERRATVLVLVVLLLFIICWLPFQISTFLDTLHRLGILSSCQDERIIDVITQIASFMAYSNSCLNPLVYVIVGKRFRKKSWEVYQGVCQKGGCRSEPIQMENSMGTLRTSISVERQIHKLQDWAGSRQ
# assay remarks: Antagonist potency at B2 bradykinin receptor (unknown origin)
# condition details: read-out: pA2 (converted)
Catalogue of compounds with associated Kb

Please review the entries below; each comes with its answer.
- compound: "N=C(N)NCCC[C@@H](N)C(=O)N[C@@H](CCCNC(=N)N)C(=O)N1CCC[C@H]1C(=O)N1C[C@H](O)C[C@H]1C(=O)NCC(=O)N[C@@H](Cc1cccs1)C(=O)N[C@@H](CO)C(=O)N1Cc2ccccc2C[C@@H]1C(=O)N1Cc2ccccc2C[C@H]1C(=O)N[C@@H](CCCNC(=N)N)C(=O)O"
  target system: "B2 bradykinin receptor (Homo sapiens, UniProt P30411)"
  Kb: "0.000794 µM"
- compound: "N=C(N)NCCC[C@@H](N)C(=O)N[C@@H](CCCNC(=N)N)C(=O)N1CCC[C@H]1C(=O)N1C[C@H](O)C[C@H]1C(=O)NCC(=O)N[C@@H](Cc1cccs1)C(=O)N[C@@H](CO)C(=O)N1Cc2ccccc2C[C@@H]1C(=O)N1Cc2ccccc2C[C@@H]1C(=O)N[C@@H](CCCNC(=N)N)C(=O)O"
  target system: "B2 bradykinin receptor (Homo sapiens, UniProt P30411)"
  Kb: "2.51 µM"
- compound: "N=C(N)NCCC[C@@H](N)C(=O)N[C@@H](CCCNC(=N)N)C(=O)N1CCC[C@H]1C(=O)N1C[C@H](O)C[C@H]1C(=O)NCC(=O)N[C@@H](Cc1cccs1)C(=O)N[C@H]1CSSC[C@@H](C(=O)N[C@@H](CCCNC(=N)N)C(=O)O)NC(=O)[C@H](Cc2ccccc2)NC(=O)[C@H](Cc2ccccc2)NC1=O"
  target system: "B2 bradykinin receptor (Homo sapiens, UniProt P30411)"
  Kb: "3.98 µM"
- compound: "N=C(N)NCCC[C@@H](N)C(=O)N[C@@H](CCCNC(=N)N)C(=O)N1CCC[C@H]1C(=O)N1C[C@H](O)C[C@H]1C(=O)NCC(=O)N[C@@H](Cc1cccs1)C(=O)N[C@@H](CO)C(=O)N[C@@H]1Cc2ccccc2CN(CC(=O)N[C@@H](CCCNC(=N)N)C(=O)O)C1=O"
  target system: "B2 bradykinin receptor (Homo sapiens, UniProt P30411)"
  Kb: "2.51 µM"

Please examine the following record next.
Inquiry: Name the recorded Kb of the compound listed here: N=C(N)NCCCC(NC(=O)[C@@H]1C[C@@H]2CCC[C@@H]2N1C(=O)[C@H]1Cc2ccccc2CN1C(=O)[C@H](CO)NC(=O)[C@H](Cc1cccs1)NC(=O)CNC(=O)[C@@H]1C[C@@H](O)CN1C(=O)[C@@H]1CCCN1C(=O)[C@H](CCCNC(=N)N)NC(=O)[C@H](N)CCCNC(=N)N)C(=O)O (stereo not given in full)
Reply text: 0.000398 µM

The values you see were collected from ChEMBL document CHEMBL5257037.
